Cited source: ChEMBL document CHEMBL6096636

Measurement notes: Apparent clearance during terminal phase in female Balb/c mouse at 5 mg/kg, ip measured after 24 hrs by LC-MS/MS analysis
Type: ADME, organism-based
Experimental parameters: in vivo, read-out: CLz/F (converted)
Test readout: CL/F (mL/min/kg)
# unit: mL/min/kg | format: bare number

GET /value?item= "Cc1ccc2c(CN[C@H]3CC[C@@H](Nc4ncc(C(=O)NO)cn4)CC3)cn(C)c2c1.Cl" &field=CL/F returns 97.7

----------
Measurement notes: Cytotoxicity against HEK293T cells assessed as inhibition of cell growth incubated for 72 hrs by CCK8 assay
Assay type: toxicity, cell-based, HEK-293T
Experimental parameters: human
Test readout: IC50 at 72 h (µM)
Return type: number; implicit unit µM.

The reported value for "O=C(NO)c1cnc(N[C@H]2CC[C@@H](NCc3ccc4cc(F)ccc4n3)CC2)nc1" in terms of IC50 at 72 h is 2.38

The recorded IC50 at 72 h for entry "O=C(NO)c1cnc(N[C@H]2CC[C@@H](NCc3cccc4ccncc34)CC2)nc1" equals 7.08

The molecule identified as "Cn1nc(CN[C@H]2CC[C@@H](Nc3ncc(C(=O)NO)cn3)CC2)c2ccccc21" registered its IC50 at 72 h at 5.74

Record "O=C(NO)c1cnc(N[C@H]2CC[C@@H](NCc3csc4ccccc34)CC2)nc1" . Reported IC50 at 72 h: 1.94

molecule "Cn1cc(CN[C@H]2CC[C@@H](Nc3ncc(C(=O)NO)cn3)CC2)c2ccc(Br)cc21" , IC50 at 72 h observed: 4.83

The molecule listed as "O=C(NO)c1cnc(N[C@H]2CC[C@@H](NCc3ccc4ncccc4c3)CC2)nc1" shows IC50 at 72 h equal to 6.98

In plain terms, "O=C(NO)c1cnc(N[C@H]2CC[C@@H](NCc3ccc4ccc5cccc6ccc3c4c56)CC2)nc1" has a documented IC50 at 72 h of 2.64

Reported IC50 at 72 h for "O=C(NO)c1cnc(N[C@H]2CC[C@@H](NCc3ccccc3)CC2)nc1" was 4.62

The measured IC50 at 72 h associated with "O=C(NO)c1cnc(N[C@H]2CC[C@@H](NCC3CCCC3)CC2)nc1" reads 5.88

Record "O=C(NO)c1cnc(N[C@H]2CC[C@@H](NCc3ccc(-c4ccccc4)cc3)CC2)nc1" , field IC50 at 72 h: 2.18

According to the records, this molecule "O=C(NO)c1cnc(N[C@H]2CC[C@@H](NCc3cccnc3)CC2)nc1" displays IC50 at 72 h of 4.24

Value of measured IC50 at 72 h for the entry "O=C(NO)c1cnc(N[C@H]2CC[C@@H](NCc3coc4ccccc34)CC2)nc1" : 3.11

// "O=C(NO)c1cnc(N[C@H]2CC[C@@H](NCc3cnc4ccccc4c3)CC2)nc1" : IC50 at 72 h value = 4.36

In plain terms, "O=C(NO)c1cnc(N[C@H]2CC[C@@H](NCc3ccc4ccccc4n3)CC2)nc1" has a documented IC50 at 72 h of 2.89

The measured IC50 at 72 h associated with "O=C(NO)c1cnc(N[C@H]2CC[C@@H](NCc3cccc4ccccc34)CC2)nc1" reads 1.53

# molecule "Cn1cc(CN[C@H]2CC[C@@H](Nc3ncc(C(=O)NO)cn3)CC2)c2ccc(F)cc21" ; its IC50 at 72 h = 6

Recorded result, "Cn1cc(CN[C@H]2CC[C@@H](Nc3ncc(C(=O)NO)cn3)CC2)c2ccccc21" , IC50 at 72 h: 4.31
